system.under.test: T1, HLA-DRB5*0101 molecule (human)
T1 chain 1: not shown
T1 chain 2: not shown
measurement.protocol: competition ELISA vs biotin-HA 306-318
pIC50: −log10 of the molar value.

>  <binder>
QRFHNIRGRWTGRCM (modifications not checked) [E6 130-144]

>  <pIC50>
7.12

$$$$
>  <binder>
RHYCYSLYGTTLEQQ (modifications not checked) [E6 84-98]

>  <pIC50>
6.05

$$$$
>  <binder>
SLYGTTLEQQYNKPL (modifications not checked) [E6 89-103]

>  <pIC50>
6.70

$$$$
>  <binder>
LRREVYDFAFRDLCIVYRDGNPY (modifications not checked) [E6(45-67)]

>  <pIC50>
7.19

$$$$
